Test system: T. cruzi trypomastigotes
assay method text: ATP generation (luciferin/luciferase)
Type: cell-based, Trypanosoma cruzi
condition context: at IC50, 2 h of incubation
property label: ATP levels

COc1cc(CO)ccc1OC(C)=O [3b] | increased ATP production
C/C=C/c1ccc(OC)c(OC)c1 [4a, 1,2-dimethoxy-4-[(E)-prop-1-enyl]benzene] | increased ATP production
C=CCc1cc([C@H]2Oc3c(OC)cc(/C=C/C)cc3[C@@H]2C)cc(OC)c1O [1d] | increased ATP production

====

assay method text: PAMPA-BBB model
Type: in vitro ADME
condition context: PAMPA-BBB model, 300 µM donor, PBS pH 7.4; read-out: Papp BBB
Please note: Papp at 16 h, 300 µM exactly at 20 nm/s is No. Only values below 20 nm/s get Yes.

INPUT: Check if Papp at 16 h, 300 µM falls below 20 nm/s for COc1ccc(C=O)cc1OC .
OUTPUT: No

INPUT: Is 20 nm/s strictly greater than the compound's reported Papp at 16 h, 300 µM? compound: COc1ccc(CO)cc1OC
OUTPUT: No

INPUT: Papp at 16 h, 300 µM strictly < 20 nm/s for this compound? C/C=C/c1ccc(OC)c(OC)c1 [4a, 1,2-dimethoxy-4-[(E)-prop-1-enyl]benzene]
OUTPUT: Yes

INPUT: Below 20 nm/s on Papp at 16 h, 300 µM? Entry C=CCc1ccc(O)c(OC)c1
OUTPUT: No

INPUT: Given C=CCc1ccc(OC)c(OC)c1 , is recorded Papp at 16 h, 300 µM strictly lower than 20 nm/s?
OUTPUT: Yes

INPUT: I'd appreciate it if you could check whether COc1cc(C=O)ccc1O has Papp at 16 h, 300 µM smaller than 20 nm/s.
OUTPUT: No
